# IC50 measurements, system: Human O-GlcNAcase (His-Tagged hOGA) (Homo sapiens (Human), UniProt O60502)
# Sequence (O60502 whole entry): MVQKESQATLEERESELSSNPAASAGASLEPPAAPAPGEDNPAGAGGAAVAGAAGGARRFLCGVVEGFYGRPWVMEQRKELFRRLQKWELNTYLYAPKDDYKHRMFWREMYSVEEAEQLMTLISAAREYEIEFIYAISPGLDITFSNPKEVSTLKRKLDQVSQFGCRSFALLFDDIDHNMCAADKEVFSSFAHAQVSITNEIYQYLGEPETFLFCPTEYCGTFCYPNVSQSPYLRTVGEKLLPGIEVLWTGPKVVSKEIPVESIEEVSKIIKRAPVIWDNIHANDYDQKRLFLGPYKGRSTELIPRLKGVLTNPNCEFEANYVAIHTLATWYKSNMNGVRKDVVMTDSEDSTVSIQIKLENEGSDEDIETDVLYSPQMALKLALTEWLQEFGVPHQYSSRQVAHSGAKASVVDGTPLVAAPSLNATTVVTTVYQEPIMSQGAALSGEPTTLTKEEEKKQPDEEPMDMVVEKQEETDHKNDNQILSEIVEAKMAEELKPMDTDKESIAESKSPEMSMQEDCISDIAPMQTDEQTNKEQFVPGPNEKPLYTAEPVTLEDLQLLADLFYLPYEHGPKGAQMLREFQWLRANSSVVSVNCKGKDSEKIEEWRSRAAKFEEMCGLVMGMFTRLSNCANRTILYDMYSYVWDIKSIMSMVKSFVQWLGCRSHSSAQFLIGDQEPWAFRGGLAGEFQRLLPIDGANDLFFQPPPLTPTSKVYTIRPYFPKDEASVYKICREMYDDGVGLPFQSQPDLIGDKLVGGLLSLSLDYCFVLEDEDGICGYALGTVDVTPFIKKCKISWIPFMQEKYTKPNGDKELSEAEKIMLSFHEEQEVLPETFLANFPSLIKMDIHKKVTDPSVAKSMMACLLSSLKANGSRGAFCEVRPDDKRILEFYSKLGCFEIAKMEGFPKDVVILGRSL

Recorded results for 3 compounds are shown here.
1) CC(c1ccc2scnc2c1)N1CCN(c2ncc(S(C)(=N)=O)cn2)CC1 (single isomer, unassigned) [Example 38]    50 to 200 nM
2) CC(c1ccc2c(c1)OCC2)N1CCN(c2ncc(S(C)(=N)=O)cn2)CC1 (single isomer, unassigned) [Example 15]    1000 to 10000 nM
3) CCN=S(C)(=O)c1cnc(N2CCN(C(C)c3ccc4scnc4c3)CC2)nc1 (racemic)    < 50 nM

// each compound listed below needs its IC50
1. CN=S(C)(=O)c1ccc(N2CCN(C(C)c3ccc4scnc4c3)CC2)nc1 (racemic)
2. Cc1nc2cc(C(C)N3CCN(c4ncc(S(C)(=O)=NC(C)C)cn4)CC3)ccc2s1 (racemic)
3. CC(c1ccc2c(c1)OCC2)N1CCN(c2ncc(S(C)(=N)=O)cn2)CC1 (single isomer, unassigned) [Example 12]
4. Cc1nc2cc(C(C)N3CCN(c4ncc(S(C)(=N)=O)cn4)CC3)ccc2s1 (racemic) [Example 42]
5. CN=S(C)(=O)c1cnc(N2CCN(C(C)c3ccc4sc(C)nc4c3)CC2)nc1 (racemic)

Response line:
["50 to 200 nM", "50 to 200 nM", "< 50 nM", "< 50 nM", "< 50 nM"]
